procedure_text: Metabolism test of drugs: plasma pharmacokinetics after intravenous and intragastric administration
Assay type: in vivo
protocol_conditions: male, rat; SD rats, PO, 10 mg/kg, plasma
Listing: AUC(0-inf) of selected molecules
Please respond with the number in ng·h/mL and leave the unit unwritten.

Worked examples, 3 molecules total:
CO[C@]1(C(=O)N[C@@H](C)c2ccc(-n3cc(F)cn3)nc2)CC[C@H](c2nc(Nc3cc(C)[nH]n3)ccc2C#N)CC1 = 2320
CO[C@]1(C(=O)N[C@@H](C)c2ccc(-n3cc(F)cn3)nc2)CC[C@H](c2nc(Nc3cc(C)[nH]n3)cc3cccnc32)CC1 = 11000
COC1(C(=O)N[C@@H](C)c2ccc(-n3cc(F)cn3)nc2)CC=C(c2nc(Nc3cc(C)[nH]n3)cc3cccnc23)CC1 (stereo partly shown) = 2830

Now for another entry.
q: Would you mind telling me what AUC(0-inf) value was observed for CO[C@]1(C(=O)N[C@@H](C)c2ccc(-n3cc(F)cn3)nc2)CC[C@H](c2nc(C)cc(Nc3cc(C)[nH]n3)n2)CC1 [BLU-667, reference compound] ?
a: 4110

----------
Listing: half-life of selected compounds
procedure_text: Metabolism test of drugs: plasma pharmacokinetics after intravenous and intragastric administration
Assay type: in vivo
protocol_conditions: male, rat; SD rats, PO, 10 mg/kg, plasma
Please respond with the number in h and leave the unit unwritten.

Worked examples, 3 compounds total:
CO[C@]1(C(=O)N[C@@H](C)c2ccc(-n3cc(F)cn3)nc2)CC[C@H](c2nc(C)cc(Nc3cc(C)[nH]n3)n2)CC1 [BLU-667, reference compound] = 3.36
CO[C@]1(C(=O)N[C@@H](C)c2ccc(-n3cc(F)cn3)nc2)CC[C@H](c2nc(Nc3cc(C)[nH]n3)ccc2C#N)CC1 = 3.26
COC1(C(=O)N[C@@H](C)c2ccc(-n3cc(F)cn3)nc2)CC=C(c2nc(Nc3cc(C)[nH]n3)cc3cccnc23)CC1 (stereo partly shown) = 1.95

Now for another entry.
q: Would you mind telling me what half-life value was observed for CO[C@]1(C(=O)N[C@@H](C)c2ccc(-n3cc(F)cn3)nc2)CC[C@H](c2nc(Nc3cc(C)[nH]n3)cc3cccnc32)CC1 ?
a: 3.18

----------
procedure_text: Metabolism test of drugs: plasma pharmacokinetics after intravenous and intragastric administration
Format: in vivo
protocol_conditions: male, rat; SD rats, PO, 10 mg/kg, plasma; read-out: MRTINF_ obs
Listing: MRT of selected compounds
Please respond with the number in h and leave the unit unwritten.

Worked examples, 3 compounds total:
CO[C@]1(C(=O)N[C@@H](C)c2ccc(-n3cc(F)cn3)nc2)CC[C@H](c2nc(Nc3cc(C)[nH]n3)cc3cccnc32)CC1 [Compound C4] = 4.3
CO[C@]1(C(=O)N[C@@H](C)c2ccc(-n3cc(F)cn3)nc2)CC[C@H](c2nc(Nc3cc(C)[nH]n3)ccc2C#N)CC1 [Compound C2] = 6.05
COC1(C(=O)N[C@@H](C)c2ccc(-n3cc(F)cn3)nc2)CC=C(c2nc(Nc3cc(C)[nH]n3)cc3cccnc23)CC1 (stereo partly shown) [Compound C8] = 2.85

Now for another entry.
q: Would you mind telling me what MRT value was observed for CO[C@]1(C(=O)N[C@@H](C)c2ccc(-n3cc(F)cn3)nc2)CC[C@H](c2nc(C)cc(Nc3cc(C)[nH]n3)n2)CC1 [BLU-667, reference compound] ?
a: 5.08

----------
procedure_text: Metabolism test of drugs: plasma pharmacokinetics after intravenous and intragastric administration
Type: in vivo
protocol_conditions: male, rat; SD rats, IV, 2 mg/kg, plasma; read-out: MRTINF_ obs
Listing: MRT of selected molecules
Please respond with the number in h and leave the unit unwritten.

q: Would you mind telling me what MRT value was observed for CO[C@]1(C(=O)N[C@@H](C)c2ccc(-n3cc(F)cn3)nc2)CC[C@H](c2nc(Nc3cc(C)[nH]n3)cc3cccnc32)CC1 ?
a: 3.74

q: Would you mind telling me what MRT value was observed for CO[C@]1(C(=O)N[C@@H](C)c2ccc(-n3cc(F)cn3)nc2)CC[C@H](c2nc(C)cc(Nc3cc(C)[nH]n3)n2)CC1 [BLU-667, reference compound] ?
a: 6.1

q: Would you mind telling me what MRT value was observed for CO[C@]1(C(=O)N[C@@H](C)c2ccc(-n3cc(F)cn3)nc2)CC[C@H](c2nc(Nc3cc(C)[nH]n3)ccc2C#N)CC1 ?
a: 4.89

----------
target: Ba/F3-KIF5B-RET-V804L cells (Homo sapiens, UniProt P07949, V804L)
Construct: the other entry of the earlier key: KIF5B (P33176, Kinesin-1 heavy chain)
Sequence (P07949 713-1063 V804L limits assumed): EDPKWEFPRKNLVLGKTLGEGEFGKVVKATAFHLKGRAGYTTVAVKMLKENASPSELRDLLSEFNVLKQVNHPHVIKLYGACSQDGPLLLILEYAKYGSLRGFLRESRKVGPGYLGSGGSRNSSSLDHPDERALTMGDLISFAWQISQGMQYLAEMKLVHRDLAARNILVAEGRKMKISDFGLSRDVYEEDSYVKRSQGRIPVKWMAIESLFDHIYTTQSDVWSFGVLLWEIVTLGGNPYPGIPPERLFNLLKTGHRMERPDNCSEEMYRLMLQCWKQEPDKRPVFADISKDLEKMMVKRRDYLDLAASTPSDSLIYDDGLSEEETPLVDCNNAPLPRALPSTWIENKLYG
procedure_text: Cell anti-proliferation experiment (CellTiter-Glo), Ba/F3-KIF5B-RET-V804L
protocol_conditions: cell viability, 72 h
endpoint: pIC50
Recall that pIC50 is obtained by taking minus log10 of the concentration measured in molar.

Worked examples, 5 compounds total:
CO[C@]1(C(=O)N[C@@H](C)c2ccc(-n3cnc(C)n3)nc2)CC[C@H](c2nc(Nc3cc(C)[nH]n3)cc3cccnc32)CC1 = 6.93
CO[C@]1(C(=O)N[C@@H](C)c2cnc(-n3cc(F)cn3)cn2)CC[C@H](c2nc(Nc3cc(C)[nH]n3)cc3cccnc32)CC1 = 8.54
CO[C@]1(C(=O)N[C@@H](C)c2ccc(-n3cnc(Cl)n3)nc2)CC[C@H](c2nc(Nc3cc(C)[nH]n3)cc3cccnc32)CC1 = 7.08
CO[C@]1(C(=O)N[C@@H](C)c2ccc(-n3cc(F)cn3)nc2)CC[C@H](c2nc(Nc3cc(C)[nH]n3)cc3cccnc32)CC1 = 8.15
CO[C@]1(C(=O)N[C@@H](C)c2ccc(-n3cc(F)cn3)nc2)CC[C@H](c2nc(Nc3cc(C)[nH]n3)cc3nccnc32)CC1 = 7.33

q: Would you mind telling me what pIC50 value was observed for CO[C@]1(C(=O)N[C@@H](C)c2ccc(-n3cc(F)cn3)nc2)CC[C@H](c2nc(Nc3cc(C)[nH]n3)ccc2C#N)CC1 ?
a: 7.77

q: Would you mind telling me what pIC50 value was observed for CO[C@]1(C(=O)N[C@@H](C)c2ccc(-n3cc(F)cn3)nc2)CC[C@H](c2nc(Nc3cc(C)[nH]n3)c3ccccc3n2)CC1 ?
a: 8.55

q: Would you mind telling me what pIC50 value was observed for CO[C@]1(C(=O)N[C@@H](C)c2ccc(-n3cc(F)cn3)nn2)CC[C@H](c2nc(Nc3cc(C)[nH]n3)cc3cccnc32)CC1 ?
a: 7.64

----------
target: wild-type RET kinase (Homo sapiens, UniProt P07949)
Sequence (P07949 29-1114): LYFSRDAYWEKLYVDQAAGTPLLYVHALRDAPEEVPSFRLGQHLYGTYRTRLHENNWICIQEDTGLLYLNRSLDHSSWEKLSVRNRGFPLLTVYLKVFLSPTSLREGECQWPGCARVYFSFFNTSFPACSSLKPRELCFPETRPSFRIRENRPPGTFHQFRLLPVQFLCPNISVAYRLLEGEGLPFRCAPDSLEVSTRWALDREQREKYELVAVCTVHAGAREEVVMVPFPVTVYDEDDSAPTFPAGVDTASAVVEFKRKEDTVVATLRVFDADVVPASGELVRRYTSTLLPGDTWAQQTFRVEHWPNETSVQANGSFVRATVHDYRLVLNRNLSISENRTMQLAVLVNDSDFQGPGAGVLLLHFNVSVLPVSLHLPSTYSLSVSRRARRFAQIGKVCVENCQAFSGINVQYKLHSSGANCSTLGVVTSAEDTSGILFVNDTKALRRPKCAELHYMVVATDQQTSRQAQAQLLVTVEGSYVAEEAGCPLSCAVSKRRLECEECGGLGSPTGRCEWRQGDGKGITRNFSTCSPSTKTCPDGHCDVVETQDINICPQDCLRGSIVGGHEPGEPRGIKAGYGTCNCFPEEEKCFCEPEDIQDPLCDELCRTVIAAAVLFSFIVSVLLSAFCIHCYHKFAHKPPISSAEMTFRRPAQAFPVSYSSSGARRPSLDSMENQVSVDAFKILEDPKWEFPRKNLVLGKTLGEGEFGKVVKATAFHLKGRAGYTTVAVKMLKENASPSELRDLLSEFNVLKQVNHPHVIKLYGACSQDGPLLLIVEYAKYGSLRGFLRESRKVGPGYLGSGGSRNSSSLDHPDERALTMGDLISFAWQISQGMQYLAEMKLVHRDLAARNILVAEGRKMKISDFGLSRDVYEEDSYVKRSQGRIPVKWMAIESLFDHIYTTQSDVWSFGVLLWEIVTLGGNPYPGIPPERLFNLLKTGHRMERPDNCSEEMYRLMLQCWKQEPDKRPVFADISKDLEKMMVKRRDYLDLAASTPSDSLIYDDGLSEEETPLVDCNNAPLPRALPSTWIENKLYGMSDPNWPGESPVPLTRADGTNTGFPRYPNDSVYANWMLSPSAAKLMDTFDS
Listing: IC50 of selected compounds
Please respond with the number in nM and leave the unit unwritten.

CO[C@]1(C(=O)N[C@@H](C)c2ccc(-n3cc(F)cn3)nc2)CC[C@@H](c2nc(Nc3cc(C)[nH]n3)ccc2C#N)CC1 = 146
CO[C@]1(C(=O)N[C@@H](C)c2ccc(-n3cc(F)cn3)nc2)CC[C@@H](c2nc(Nc3cc(C)[nH]n3)cc3c2N(C)CCC3)CC1 = 100
CO[C@]1(C(=O)N[C@@H](C)c2ccc(-n3cc(F)cn3)nc2)CC[C@@H](c2nc(Nc3cc(C)[nH]n3)c(F)cc2C#N)CC1 = 262
CO[C@]1(C(=O)N[C@@H](C)c2ccc(-n3cc(F)cn3)nc2)CC[C@H](c2nc(Nc3cc(C)[nH]n3)cc3cccnc32)CC1 = 1.02

Now for another entry.
q: Would you mind telling me what IC50 value was observed for CO[C@]1(C(=O)N[C@@H](C)c2ccc(-n3cc(F)cn3)nc2)CC[C@H](c2nc(Nc3cc(C)[nH]n3)c(F)cc2C#N)CC1 ?
a: 3.38

----------
procedure_text: Metabolism test of drugs: plasma pharmacokinetics after intravenous and intragastric administration
Format: in vivo
protocol_conditions: male, rat; SD rats, IV, 2 mg/kg, plasma
endpoint: AUC(0-t)
Number first, unit second: that is the form wanted.

Worked examples, 2 compounds total:
CO[C@]1(C(=O)N[C@@H](C)c2ccc(-n3cc(F)cn3)nc2)CC[C@H](c2nc(C)cc(Nc3cc(C)[nH]n3)n2)CC1 [BLU-667, reference compound] = 1330 ng·h/mL
CO[C@]1(C(=O)N[C@@H](C)c2ccc(-n3cc(F)cn3)nc2)CC[C@H](c2nc(Nc3cc(C)[nH]n3)cc3cccnc32)CC1 [Compound C4] = 4390 ng·h/mL

Now for another entry.
q: Would you mind telling me what AUC(0-t) value was observed for CO[C@]1(C(=O)N[C@@H](C)c2ccc(-n3cc(F)cn3)nc2)CC[C@H](c2nc(Nc3cc(C)[nH]n3)ccc2C#N)CC1 [Compound C2] ?
a: 3850 ng·h/mL

----------
procedure_text: Metabolism test of drugs: plasma pharmacokinetics after intravenous and intragastric administration
Type: in vivo
protocol_conditions: male, rat; SD rats, PO, 10 mg/kg, plasma
Experimental: Four small molecule compounds of BLU-667, compound C2, compound C4 and compound C8 were administered to SD rats by intravenous and intragastric administration respectively. […] According to the data of blood drug concentration of the drug, the pharmacokinetic parameters AUC0→t, AUC0→∞, MRT0→∞, CMax, TMax, Vss, F, CL and T1/2 as well as their mean and standard deviation of the samples for test were calculated respectively by pharmacokinetic calculation software WinNonlin non-compartment model. […]
Listing: Tmax of selected molecules
Please respond with the number in h and leave the unit unwritten.

CO[C@]1(C(=O)N[C@@H](C)c2ccc(-n3cc(F)cn3)nc2)CC[C@H](c2nc(Nc3cc(C)[nH]n3)ccc2C#N)CC1 [Compound C2] = 2

q: Would you mind telling me what Tmax value was observed for CO[C@]1(C(=O)N[C@@H](C)c2ccc(-n3cc(F)cn3)nc2)CC[C@H](c2nc(Nc3cc(C)[nH]n3)cc3cccnc32)CC1 [Compound C4] ?
a: 2

q: Would you mind telling me what Tmax value was observed for COC1(C(=O)N[C@@H](C)c2ccc(-n3cc(F)cn3)nc2)CC=C(c2nc(Nc3cc(C)[nH]n3)cc3cccnc23)CC1 (stereo partly shown) [Compound C8] ?
a: 2

q: Would you mind telling me what Tmax value was observed for CO[C@]1(C(=O)N[C@@H](C)c2ccc(-n3cc(F)cn3)nc2)CC[C@H](c2nc(C)cc(Nc3cc(C)[nH]n3)n2)CC1 [BLU-667, reference compound] ?
a: 4
